Target: HDAC1 (Homo sapiens (Human))
Sequence (Q13547 whole entry, species assumed): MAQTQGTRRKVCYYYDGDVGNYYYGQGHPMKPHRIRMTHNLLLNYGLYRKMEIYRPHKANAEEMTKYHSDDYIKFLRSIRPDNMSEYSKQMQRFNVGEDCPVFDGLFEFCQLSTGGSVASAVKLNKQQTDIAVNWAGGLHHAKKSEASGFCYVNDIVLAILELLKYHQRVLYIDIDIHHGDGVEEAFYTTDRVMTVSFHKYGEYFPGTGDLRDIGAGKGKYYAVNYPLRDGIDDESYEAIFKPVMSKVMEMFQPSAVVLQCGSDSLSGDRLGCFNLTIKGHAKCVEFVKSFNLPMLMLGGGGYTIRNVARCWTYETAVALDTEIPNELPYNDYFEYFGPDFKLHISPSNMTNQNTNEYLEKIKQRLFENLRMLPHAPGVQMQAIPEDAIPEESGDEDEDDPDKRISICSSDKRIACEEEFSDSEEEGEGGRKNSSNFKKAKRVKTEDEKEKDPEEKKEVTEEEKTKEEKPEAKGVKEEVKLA
Test: HDAC inhibitory activity assay (as described in WO2008/062201), HDAC1
Type: biochemical
pIC50: −log10 of the molar value.
experimental endpoint: pIC50

[[record]]
compound = "Cc1nsc(N(CCCCCCC(=O)NO)c2ccccn2)n1 [Example A]"
measured_result = "> 6.30"


* * *

Molecular target: HDAC6 (Homo sapiens (Human))
Sequence (Q9UBN7 whole entry, species assumed): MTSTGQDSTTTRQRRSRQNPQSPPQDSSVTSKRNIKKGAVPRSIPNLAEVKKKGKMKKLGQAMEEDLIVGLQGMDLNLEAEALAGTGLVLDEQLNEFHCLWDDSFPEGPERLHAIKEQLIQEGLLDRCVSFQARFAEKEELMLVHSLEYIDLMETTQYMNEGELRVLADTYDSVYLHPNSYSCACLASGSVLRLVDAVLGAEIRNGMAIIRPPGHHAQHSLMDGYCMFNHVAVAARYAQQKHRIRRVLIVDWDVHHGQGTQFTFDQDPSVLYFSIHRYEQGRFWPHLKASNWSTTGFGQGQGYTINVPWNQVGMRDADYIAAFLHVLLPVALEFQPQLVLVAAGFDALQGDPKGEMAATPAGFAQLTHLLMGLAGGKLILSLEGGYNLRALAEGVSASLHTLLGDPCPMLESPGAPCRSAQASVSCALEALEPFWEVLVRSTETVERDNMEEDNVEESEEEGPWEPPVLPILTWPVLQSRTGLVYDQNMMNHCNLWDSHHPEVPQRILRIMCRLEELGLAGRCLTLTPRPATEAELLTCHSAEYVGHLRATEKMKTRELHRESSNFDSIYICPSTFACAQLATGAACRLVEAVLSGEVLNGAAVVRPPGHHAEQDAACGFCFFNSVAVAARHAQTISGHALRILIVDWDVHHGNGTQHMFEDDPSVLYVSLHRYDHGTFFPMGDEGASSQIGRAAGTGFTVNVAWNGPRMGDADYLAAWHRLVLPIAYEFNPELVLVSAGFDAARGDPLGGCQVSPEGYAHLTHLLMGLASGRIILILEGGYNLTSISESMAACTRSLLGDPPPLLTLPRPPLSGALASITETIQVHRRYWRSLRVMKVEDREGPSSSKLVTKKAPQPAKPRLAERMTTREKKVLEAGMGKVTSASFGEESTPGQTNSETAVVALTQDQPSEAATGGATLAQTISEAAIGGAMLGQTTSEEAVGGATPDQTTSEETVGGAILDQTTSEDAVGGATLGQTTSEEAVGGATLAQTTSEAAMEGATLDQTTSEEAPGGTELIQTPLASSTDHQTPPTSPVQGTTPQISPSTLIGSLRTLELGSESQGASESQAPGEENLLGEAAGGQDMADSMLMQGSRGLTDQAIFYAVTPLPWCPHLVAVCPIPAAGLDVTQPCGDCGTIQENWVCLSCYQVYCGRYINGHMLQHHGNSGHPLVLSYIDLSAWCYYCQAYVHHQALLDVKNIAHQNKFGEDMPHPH
Assay: HDAC inhibitory activity assay (as described in WO2008/062201), HDAC6
Assay type: biochemical
pIC50: −log10 of the molar value.
experimental endpoint: pIC50

[[record]]
chemical_smiles = "Cc1nsc(N(CCCCCCC(=O)NO)c2ccccn2)n1"
measured_result = "> 6.30"


* * *

Assay: Comparative mouse pharmacokinetics (oral bioavailability)
Conditions: in vivo, read-out: Oral bioavailability, F %
experimental endpoint: bioavailability

[[record]]
chemical_smiles = "Cc1nsc(N(CCCCCCC(=O)NO)c2ccccn2)n1"
measured_result = "19%"


* * *

Biological target: HDAC1 (Homo sapiens (Human))
Assay: HDAC inhibitory activity assay (as described in WO2008/062201), HDAC1
Assay type: biochemical
Settings: class symbol; read-out: IC50, HDAC1
Measured IC50 of individual entries
experimental endpoint: IC50

[[record]]
chemical_smiles = "Cc1nnc(N(CCCCCCCC(=O)NO)c2ccccn2)s1"
experimental_endpoint = "IC50"
measured_result = "1000 to 10000 nM"

[[record]]
chemical_smiles = "O=C(CCCCCCN(c1ccccn1)c1nccs1)NO"
experimental_endpoint = "IC50"
measured_result = "1000 to 10000 nM"

[[record]]
chemical_smiles = "O=C(CCCCCCCN(c1ccc(F)cn1)c1nc2ccccc2o1)NO"
experimental_endpoint = "IC50"
measured_result = "1000 to 10000 nM"

[[record]]
chemical_smiles = "O=C(CCCCCCN(c1ccc(F)cn1)c1nc(C(F)(F)F)ns1)NO"
experimental_endpoint = "IC50"
measured_result = "500 to 1000 nM"

[[record]]
chemical_smiles = "Cn1c(N(CCCCCCC(=O)NO)c2ccccn2)nc2ccccc21"
experimental_endpoint = "IC50"
measured_result = "1000 to 10000 nM"

[[record]]
chemical_smiles = "O=C(CCCCCCN(c1ccccn1)c1ncns1)NO"
experimental_endpoint = "IC50"
measured_result = "500 to 1000 nM"

[[record]]
chemical_smiles = "Cn1ccc(N(CCCCCCCC(=O)NO)c2cc(-c3ccc(F)cc3)ccn2)n1"
experimental_endpoint = "IC50"
measured_result = "> 10000 nM"

[[record]]
chemical_smiles = "Cn1c(N(CCCCCCC(=O)NO)c2ccc(F)cn2)nc2ccccc21"
experimental_endpoint = "IC50"
measured_result = "500 to 1000 nM"


* * *

Target: UniProt Q9UBN7
Assay: HDAC inhibitory activity assay (as described in WO2008/062201), HDAC6
Type: biochemical
Conditions: numeric value; read-out: IC50, HDAC6
experimental endpoint: IC50

[[record]]
chemical_smiles = "Cc1nsc(N(CCCCCCC(=O)NO)c2ccccn2)n1"
study_system = "UniProt Q9UBN7"
experimental_endpoint = "IC50"
measured_result = "1.76 nM"


* * *

Biological target: HDAC1 (Homo sapiens (Human))
Experiment: HDAC inhibitory activity assay (as described in WO2008/062201), HDAC1
Type: biochemical
Conditions: class symbol; read-out: IC50, HDAC1
experimental endpoint: IC50

[[record]]
compound = "Cn1ccc(N(CCCCCCCC(=O)NO)c2ccc(F)cn2)n1 [Example V]"
measured_result = "> 10 µM"

[[record]]
compound = "Cn1c(N(CCCCCCCC(=O)NO)c2ccc(F)cn2)nc2ccccc21 [Example T]"
measured_result = "1 to 10 µM"

[[record]]
compound = "Cn1ccc(N(CCCCCCC(=O)NO)c2ccc(F)cn2)n1 [Example U]"
measured_result = "1 to 10 µM"

[[record]]
compound = "O=C(CCCCCCCN(c1ccccn1)c1nccs1)NO [Example LL]"
measured_result = "1 to 10 µM"

[[record]]
compound = "O=C(CCCCCCCN(c1ccccn1)c1ncns1)NO [Example P]"
measured_result = "1 to 10 µM"

[[record]]
compound = "Cc1nnc(N(CCCCCCC(=O)NO)c2ccccn2)s1 [Example I]"
measured_result = "0.5 to 1 µM"

[[record]]
compound = "Cc1noc(N(CCCCCCC(=O)NO)c2ccc(F)cn2)n1 [Example Q]"
measured_result = "> 10 µM"

[[record]]
compound = "Cc1nsc(N(CCCCCCCC(=O)NO)c2ccc(F)cn2)n1 [Example DD]"
measured_result = "1 to 10 µM"

[[record]]
compound = "O=C(CCCCCCN(c1ccc(F)cn1)c1nc2ccccc2o1)NO [Example W]"
measured_result = "1 to 10 µM"

[[record]]
compound = "Cc1noc(N(CCCCCCCC(=O)NO)c2ccccn2)n1 [Example D]"
measured_result = "1 to 10 µM"

